biological target: PPARa:RXRa (Homo sapiens, UniProt Q07869;P19793 full;full); assay: no ligand; PBM; 270 nM : 90 nM RXRa; PBS pH 7.4, 2% milk, 0.02% Triton X-100, 1 mM DTT, BSA, 0.4 mg/ml salmon testes DNA; conditions: tags: GST kept;His cleaved; copies: 1;1; label: surface-attached array probe
Sequence (Q07869 whole entry, chain 1 of 2): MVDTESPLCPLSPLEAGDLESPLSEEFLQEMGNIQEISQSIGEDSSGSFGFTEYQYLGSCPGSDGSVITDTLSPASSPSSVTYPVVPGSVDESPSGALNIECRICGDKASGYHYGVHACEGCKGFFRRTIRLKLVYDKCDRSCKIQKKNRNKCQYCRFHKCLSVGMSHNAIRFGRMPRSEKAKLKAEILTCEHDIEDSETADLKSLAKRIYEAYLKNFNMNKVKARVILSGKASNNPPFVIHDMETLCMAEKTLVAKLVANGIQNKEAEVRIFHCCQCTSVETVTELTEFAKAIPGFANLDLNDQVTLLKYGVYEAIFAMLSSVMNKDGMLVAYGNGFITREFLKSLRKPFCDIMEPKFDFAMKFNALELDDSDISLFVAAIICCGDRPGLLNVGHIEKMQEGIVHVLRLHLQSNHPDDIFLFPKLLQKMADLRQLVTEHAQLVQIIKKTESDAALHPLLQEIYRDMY
Sequence (P19793 whole entry, chain 2 of 2): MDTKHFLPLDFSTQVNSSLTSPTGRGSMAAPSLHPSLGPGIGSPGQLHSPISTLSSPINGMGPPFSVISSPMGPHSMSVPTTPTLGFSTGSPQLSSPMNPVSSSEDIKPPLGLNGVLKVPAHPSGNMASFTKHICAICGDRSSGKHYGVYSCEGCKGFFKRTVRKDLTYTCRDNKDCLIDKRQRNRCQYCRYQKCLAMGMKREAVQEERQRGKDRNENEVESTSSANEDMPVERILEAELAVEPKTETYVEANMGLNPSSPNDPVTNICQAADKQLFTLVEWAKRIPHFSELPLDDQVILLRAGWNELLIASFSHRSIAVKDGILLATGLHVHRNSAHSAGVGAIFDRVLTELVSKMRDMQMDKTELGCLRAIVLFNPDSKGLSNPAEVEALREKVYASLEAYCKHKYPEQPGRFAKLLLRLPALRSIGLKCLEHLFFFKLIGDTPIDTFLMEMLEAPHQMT
measure: binding signal

Task item: Which binding signal reading was recorded for the binder NRC3_wobSeed97_DR4_T8A_o1 (dsDNA) DNA 1: GCCAAACAAGGTCACGAAAGGTCAAAGTCGAATGACGCGATTGACAGCGTAGAATGAAGG DNA 2: CCTTCATTCTACGCTGTCAATCGCGTCATTCGACTTTGACCTTTCGTGACCTTGTTTGGC ?
Reply: 7 PBM z-score against 500 random probes
